# Species: Rattus norvegicus
# experiment_description: Open TG-GATES - Regimen: Single
# Type: toxicity, organism-based, Sprague-Dawley
# Parameters: regimen Single, gender Male, age 6 weeks
# condition_context: in vivo, po, 0 mg/kg, 3 h, route gavage, dose level Control
Assign labels as follows, please: condition met for TERMINAL_BW below 200 g; condition not met for TERMINAL_BW equal to or exceeding 200 g.

COc1ccc(Cc2nccc3cc(OC)c(OC)cc23)cc1OC :: condition not met
Cn1c(=O)c2[nH]cnc2n(C)c1=O.O :: condition not met
CC(=O)Oc1ccccc1C(=O)O :: condition not met

I wonder whether `C[C@H](CS)C(=O)N1CCC[C@H]1C(=O)O` has TERMINAL_BW below 200 g. Can you tell?
condition not met

I wonder whether `O=C(O)c1cn(C2CC2)c2cc(N3CCNCC3)c(F)cc2c1=O` has TERMINAL_BW below 200 g. Can you tell?
condition met

I wonder whether CSc1ccc2c(c1)N(CCC1CCCCN1C)c1ccccc1S2 (configuration not stated) has TERMINAL_BW below 200 g. Can you tell?
condition not met

I wonder whether CCc1cc(C(N)=S)ccn1 [ETHIONAMIDE] has TERMINAL_BW below 200 g. Can you tell?
condition not met

I wonder whether `Clc1ccccc1CN1CCc2sccc2C1` has TERMINAL_BW below 200 g. Can you tell?
condition not met

I wonder whether NC(=O)N1c2ccccc2C=Cc2ccccc21 [CARBAMAZEPINE] has TERMINAL_BW below 200 g. Can you tell?
condition not met

I wonder whether `O=C(O)c1cc(/N=N/c2ccc(S(=O)(=O)Nc3ccccn3)cc2)ccc1O` has TERMINAL_BW below 200 g. Can you tell?
condition not met

I wonder whether `NC(=O)N/N=C/c1ccc([N+](=O)[O-])o1` has TERMINAL_BW below 200 g. Can you tell?
condition met
